Biological target: Neuronal acetylcholine receptor subunit alpha-7 (Homo sapiens)
Assay: Partial agonist activity at human alpha7 nAChR expressed in Xenopus laevis oocytes assessed as increase in net charge at 30 uM at -60 mV holding potential treated for 12 secs followed by compound washout for 181 secs by whole cell two electrode voltage-clamp assay relative to ACh
Type: cell-based
OBSERVED PROPERTY: fold change (FC)
Output: the number by itself.

Worked examples follow.
>  <COMPOUND>
Cc1noc(CC2C[N+]3(C)CCC2CC3)n1 (centres undefined)

>  <fold change (FC)>
0.001

$$$$
>  <COMPOUND>
c1cc(-c2noc(CC3CN4CCC3CC4)n2)ccn1 (centres undefined)

>  <fold change (FC)>
0.703

$$$$
>  <COMPOUND>
c1csc(-c2noc(CC3CN4CCC3CC4)n2)c1 (centres undefined)

>  <fold change (FC)>
0.508

$$$$

Consider the additional compound presented here.
Asked: Requested read-out: fold change (FC). Entry: Cc1noc(CC2CN3CCC2CC3)n1 (centres undefined)
Given back: 0.042

* * *

fold change (FC) reference
Target: Neuronal acetylcholine receptor subunit alpha-7 (Homo sapiens, UniProt P36544)
Sequence (P36544 whole entry): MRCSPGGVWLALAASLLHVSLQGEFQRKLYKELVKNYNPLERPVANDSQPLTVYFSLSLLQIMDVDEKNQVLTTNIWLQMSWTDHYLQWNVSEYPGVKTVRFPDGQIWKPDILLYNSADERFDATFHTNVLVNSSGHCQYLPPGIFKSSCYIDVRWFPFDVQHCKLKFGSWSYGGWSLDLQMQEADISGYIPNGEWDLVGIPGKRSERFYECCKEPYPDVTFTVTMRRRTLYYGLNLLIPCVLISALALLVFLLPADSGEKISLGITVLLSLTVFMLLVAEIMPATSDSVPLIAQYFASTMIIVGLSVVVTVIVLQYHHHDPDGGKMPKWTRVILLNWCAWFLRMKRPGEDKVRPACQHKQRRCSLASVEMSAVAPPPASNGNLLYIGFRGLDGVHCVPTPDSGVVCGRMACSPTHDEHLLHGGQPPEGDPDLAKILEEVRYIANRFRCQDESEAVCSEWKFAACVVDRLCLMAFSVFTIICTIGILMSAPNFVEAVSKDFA
Test: Partial agonist activity at human alpha7 nAChR expressed in Xenopus laevis oocytes assessed as increase in peak current amplitude at 30 uM at -60 mV holding potential treated for 12 secs followed by compound washout for 181 secs by whole cell two electrode voltage-clamp assay relative to ACh
Format: cell-based

Worked examples follow.
>  <MOLECULE>
c1coc(-c2noc(CC3CN4CCC3CC4)n2)c1 (stereo not given)

>  <fold change (FC)>
2.14

$$$$
>  <MOLECULE>
FC(F)(F)c1cccc(-c2noc(CC3CN4CCC3CC4)n2)c1 (stereo not given)

>  <fold change (FC)>
0.144

$$$$
>  <MOLECULE>
C[N+]12CCC(CC1)C(Cc1nc(-c3cccc(F)c3)no1)C2 (stereo not given)

>  <fold change (FC)>
0.067

$$$$

Asked: Requested read-out: fold change (FC). Entry: Cc1cccc(-c2noc(CC3CN4CCC3CC4)n2)c1 (stereo not given)
Given back: 2.11

* * *

Target: Neuronal acetylcholine receptor subunit alpha-7 (Homo sapiens)
Assay: Silent agonist activity at human alpha7 nAChR expressed in Xenopus laevis oocytes assessed as increase in net charge at 30 uM at -60 mV holding potential treated for 12 secs followed by compound washout for 181 secs in presence of type 2 PAM PNU-120596 by whole cell two electrode voltage-clamp assay relative to ACh
Format: cell-based
The label 1 is reserved for fold change (FC) strictly under 2; 0 covers values equal to or above it.

Illustrative cases are given below, each with its answer.
>  <COMPOUND>
C[N+]12CCC(CC1)C(Cc1nc(-c3ccncc3)no1)C2 (stereo not given)

>  <CLASS NAME>
0

$$$$
>  <COMPOUND>
Cc1noc(CC2CN3CCC2CC3)n1 (stereo not given)

>  <CLASS NAME>
0

$$$$
>  <COMPOUND>
c1ccc(-c2noc(CC3CN4CCC3CC4)n2)cc1 (stereo not given)

>  <CLASS NAME>
1

$$$$
>  <COMPOUND>
COc1cccc(-c2noc(CC3C[N+]4(C)CCC3CC4)n2)c1 (stereo not given)

>  <CLASS NAME>
1

$$$$

Here's the next entry for you.
Asked: Lab note: fold change (FC) threshold 2. Does this compound come in strictly under it? C[N+]12CCC(CC1)C(Cc1nc(-c3cccc(I)c3)no1)C2 (stereo not given)
Given back: 1

# credit: ChEMBL document CHEMBL4308856
